# System: U2OS
# experimentSummary: Incucyte cell viability with U2OS; further: unitless GR value; below 1 slowed growth and below 0 cell loss
# Assay type: toxicity, cell-based
# experimentalSetup: human, 24 h, 10 µM, compound concentration 10 uM, replicate number 2
Rule: Growth Rate of 0.9 or more gives Criterion met; anything lower gives Criterion not met.

molecule="O[C@]1(C(F)(F)F)CCCC[C@H]1Nc1ccc(F)cc1 [BAY-390]" assignedlabel="Criterion met"
molecule="Cl.NCC(O)c1ccc(O)cc1 (stereo not given) [OCTOPAMINE HYDROCHLORIDE]" assignedlabel="Criterion met"
molecule=COc1ccccc1-n1nc(C2CC(C)(C)OC(C)(C)C2)cc1-c1ccc(Cl)cc1 assignedlabel="Criterion met"
molecule=COc1c(C(=O)/C=C/c2ccccc2)c(O)c(OC)c2occc12 assignedlabel="Criterion not met"
molecule=COc1ccccc1-c1cc(Nc2cccc(CS(N)(=O)=O)c2)ncn1 assignedlabel="Criterion not met"
molecule=CC(C)N(C(=O)C1CCOCC1)c1cc(F)c(Oc2ncc(Cn3nccn3)cc2C(F)(F)F)cc1C(=O)O assignedlabel="Criterion met"
molecule=CC(C)c1cc(Br)c(NC(=O)Nc2cccnc2)c(Br)c1 assignedlabel="Criterion met"
molecule="NCC1CCC(CNc2nc(NCc3ccccc3OC(F)(F)F)ncc2[N+](=O)[O-])CC1 (stereo not given)" assignedlabel="Criterion not met"
molecule=CC(=O)c1ccc2c(c1)/C(=C(/NC1CCN(C)CC1)c1ccc3c(c1)OCO3)C(=O)N2 assignedlabel="Criterion not met"

====

Measured Growth Rate, listed per entry for reference.
# System: U2OS
# experimentSummary: Incucyte cell viability with U2OS; further: unitless GR value; below 1 slowed growth and below 0 cell loss
# Format: toxicity, cell-based
# experimentalSetup: human, 18 h, 10 µM, compound concentration 10 uM, replicate number 1
attributeMeasured: Growth Rate

compound=CNc1nc(-c2ccc3c(N)n[nH]c3c2)cc(N2C[C@@H](C(=O)NC3CCCCC3)CC[C@H]2C)n1 attributemeasured="Growth Rate" assayvalue=0.49
compound=FC(F)(F)c1ccc(Nc2ncnc3cc(-c4ncccc4C(F)(F)F)ccc23)cc1 attributemeasured="Growth Rate" assayvalue=0.96
compound=CC(C)(C)OC(=O)CN1C(=O)c2c(OCC(=O)O)cccc2Oc2ccc(C(F)(F)F)cc21 attributemeasured="Growth Rate" assayvalue=0.83
compound="CC(C)S(=O)(=O)c1ccccc1Nc1nc(N[C@@H]2CCCN(CCCCCCCNC(=O)COc3cccc4c3C(=O)N(C3CCC(=O)NC3=O)C4=O)C2)ncc1Cl (stereo partly drawn)" attributemeasured="Growth Rate" assayvalue=0.03
compound=Cc1onc(-c2ccc(F)cc2)c1COc1ccc(C(=O)N2CCS(=O)(=O)CC2)cn1 attributemeasured="Growth Rate" assayvalue=0.87
compound="CC1CNCCc2c1nc1ccnn1c2N1CC(C(=O)N2CCC(C)(C)C2)C1 (stereo not drawn)" attributemeasured="Growth Rate" assayvalue=0.86
compound=c1ccc2c(-c3coc4cc(-c5ccc(N6CCNCC6)cc5)cnc34)ccnc2c1 attributemeasured="Growth Rate" assayvalue=0.14
compound=O=C(NC1CCNCC1)c1n[nH]cc1NC(=O)c1c(Cl)cccc1Cl attributemeasured="Growth Rate" assayvalue=0.05

====

# Test system: U2OS
# experimentSummary: Incucyte cell viability with U2OS; further: unitless GR value; below 1 slowed growth and below 0 cell loss
# Format: toxicity, cell-based
# experimentalSetup: human, 0 h, 10 µM, compound concentration 10 uM, replicate number 1
Would you mind labelling by Growth Rate? At or over 0.1 is class 1, under is class 0.

molecule=Cc1ccc(-c2c(C(=O)CF)n(CCCO)c3ncnc(N)c23)cc1 assignedlabel="class 1"
molecule="CCOC(=O)c1cncn1[C@H](C)c1ccccc1 [ETOMIDATE]" assignedlabel="class 1"
molecule="Cc1cc2c(-c3ccco3)cnc(N[C@@H]3CCN(C)C[C@H]3C(=O)NC3CCCCC3)c2[nH]c1=O [GSK789]" assignedlabel="class 0"
molecule=C=CC(=O)Nc1cccc(C(=O)Nc2ccc(NC(=O)c3cccc(-c4ccn[nH]4)n3)cc2)c1 assignedlabel="class 0"
molecule=Nc1ncnc2[nH]c(-c3ccccc3)nc12 assignedlabel="class 0"
molecule="C[C@H](CCC(=O)O)[C@H]1CC[C@H]2[C@@H]3CC[C@@H]4C[C@H](O)CC[C@]4(C)[C@H]3CC[C@]12C [LITHOCHOLIC ACID]" assignedlabel="class 0"
molecule="C=CC(=O)Nc1ccc2[nH]c(=O)n(C3CCN(Cc4ccc(-c5ccc6c(c5)NC(=O)CO6)cc4)CC3)c2c1 [RL2578]" assignedlabel="class 1"
molecule="NC(=O)C1CCCc2c1[nH]c1ccc(Cl)cc21 (stereo unspecified)" assignedlabel="class 1"
molecule="CC(=O)O[C@H]1C(=O)[C@@]2(C)[C@H]([C@H](OC(=O)c3ccccc3)[C@]3(O)C[C@H](OC(=O)[C@H](O)[C@@H](NC(=O)c4ccccc4)c4ccccc4)C(C)=C1C3(C)C)[C@]1(OC(C)=O)CO[C@@H]1C[C@@H]2O [PACLITAXEL]" assignedlabel="class 0"
molecule="CCC(=O)N[C@H]1CC[C@@H](C(=O)N(C)c2ccc(-c3nc4ccccc4o3)cc2)C1 [BI 99179]" assignedlabel="class 1"
molecule="CN1CCN(c2ccc(Nc3ncc4cc5n(c4n3)C3(CCCCC3)CNC5=O)nc2)CC1 [TRILACICLIB]" assignedlabel="class 1"
molecule="Cl.N/C(=N\\C(=O)c1nc(Cl)c(N)nc1N)NCc1ccccc1 [BENZAMIL HYDROCHLORIDE]" assignedlabel="class 1"
molecule="CNCc1ccc(-c2cc(-c3nc(-c4ccc(S(=O)(=O)C(C)C)cc4)cnc3N)on2)cc1 [BERZOSERTIB]" assignedlabel="class 0"
molecule=CSc1nc2c(c(=O)n(C)c(=O)n2C)n1C assignedlabel="class 1"
molecule=CC(C)(C)c1cc(NC(=O)c2csc(Nc3ccccn3)n2)no1 assignedlabel="class 1"
molecule="O=C(Cc1ccccc1)Nc1nnc(N2CC[C@@H]3[C@H]2CN3c2cccnn2)s1 [A-426]" assignedlabel="class 0"
molecule="COC(=O)c1ccc2c(c1)NC(=O)/C2=C(\\Nc1ccc(N(C)C(=O)CN2CCN(C)CC2)cc1)c1ccccc1 [NINTEDANIB]" assignedlabel="class 1"
molecule=N[C@@H]1CCCN(c2c(/C=C3\SC(=O)NC3=O)cccc2-c2ccccc2)C1 assignedlabel="class 0"
molecule=NC(=O)c1sc2nc(N3CCC(NC[C@H](O)c4ccccn4)CC3)cc(C(F)(F)F)c2c1N assignedlabel="class 1"
molecule="CCCCCCC(Sc1nc(Cl)cc(NCc2ccc(-c3ccccc3)cc2)n1)C(=O)O (stereo unspecified)" assignedlabel="class 1"
molecule=CC(C)n1cc(-c2ccc(N3CCN(C)CC3)c(NC(=O)c3ccc(-c4ccncc4)o3)c2)cn1 assignedlabel="class 0"
molecule=COc1cc(C(=O)NC2CCN(C)CC2)ccc1Nc1ncc2c(n1)N(C1CCCC1)CC(F)(F)C(=O)N2C assignedlabel="class 0"
molecule="CC(=O)NCC(=O)N1[C@@H]2CC[C@H]1c1ccc(Nc3ncc(C(F)(F)F)c(NC4CCC4)n3)cc12 [PF-03814735]" assignedlabel="class 0"
molecule="CNC(=O)c1cc(C(=O)NC2CC2)cn(Cc2ccccc2)c1=O [GSK620]" assignedlabel="class 0"
molecule=NS(=O)(=O)c1ccc(Nc2nc(OCC3CCCCC3)c3nc[nH]c3n2)cc1 assignedlabel="class 0"
molecule="Cc1nccn1CC1CCc2c(c3ccccc3n2C)C1=O.Cl (stereo unspecified)" assignedlabel="class 0"
molecule=Clc1cccc(-n2nnnc2NCc2ccccc2Oc2ccccn2)c1Cl assignedlabel="class 0"
molecule=CCc1ccc(-c2ncn(CC3(F)CCN(C)CC3)c2-c2ccnc3[nH]ccc23)nc1 assignedlabel="class 1"
molecule=COc1c(C(=O)/C=C/c2ccccc2)c(O)c(OC)c2occc12 assignedlabel="class 0"
molecule=CN(C)CCCNc1ccnc(Nc2cccc(Cl)c2)n1 assignedlabel="class 0"
molecule=COc1cc(C(N)=O)ccc1Nc1ncc2c(n1)N(CCC(C)C)[C@H](C)C(=O)N2C assignedlabel="class 0"
molecule="Cc1c(N2CCCC2)nc2ccc(Br)cc2c1C(=O)NC[C@H](CCC(=O)O)c1ccccc1Cl [BAY-6672]" assignedlabel="class 1"
molecule="CCCCCCCC/C=C\\CCCCCCCC(=O)NCCO [OLEOYLETHANOLAMIDE]" assignedlabel="class 0"
molecule="CS(=O)(=O)CCNCc1ccc(-c2ccc3ncnc(Nc4ccc(OCc5cccc(F)c5)c(Cl)c4)c3c2)o1 [LAPATINIB]" assignedlabel="class 1"

====

Measured Growth Rate by item
# System: HEK-293T
# experimentSummary: Incucyte cell viability with HEK293T; further: unitless GR value; below 1 slowed growth and below 0 cell loss
# Assay type: toxicity, cell-based
# experimentalSetup: human, 12 h, 10 µM, compound concentration 10 uM, replicate number 2
attributeMeasured: Growth Rate

mol=Cc1ccc(CNc2ncnc3ccc(-c4ccc(CO)o4)cc23)o1 assayvalue=0.71
mol=COc1ccc(CC[C@@H](OC(=O)[C@@H]2CCCCN2C(=O)[C@H](c2cc(OC)c(OC)c(OC)c2)C2CCCCC2)c2cccc(OCCN3CCOCC3)c2)cc1OC assayvalue=0.38
mol=NC(=O)c1ccc(-c2nc(-c3ccc4c(c3)OCCO4)c(-c3ccccn3)[nH]2)cc1 assayvalue=0.81
mol=CC(C)(C)S(=O)(=O)c1ccc2nccc(Nc3n[nH]c4ccc(F)cc34)c2c1 assayvalue=-0.13
mol=CC(C)(C)c1ccc(-c2coc3ccc(-c4cn[nH]c4)nc23)cc1 assayvalue=0.72
mol=CCC(=O)N[C@@H]1CC[C@H](C(=O)N(C)c2ccc(-c3nc4ccccc4o3)cc2)C1 assayvalue=0.49
mol=N#Cc1ccc(C#CC[C@@H](C#N)NC(=O)[C@@H]2CCCCN2)cc1F assayvalue=0.89
mol=CN[C@@H](C)C(=O)N[C@H](C(=O)N1CCC[C@H]1c1nc(C(=O)c2ccc(F)cc2)cs1)C1CCCCC1 assayvalue=0.95
